protocol notes: in vivo
conditions: male, rat, iv, 1.6 mg/kg
readout label: AUC (ng·h/mL)
Field: numeric (ng·h/mL). Do not append units.

The value of AUC measured for the compound CC1=C(/C=C/C(C)=C/C=C/C(C)=C/C(=O)O)C(C)(C)CCC1 [ATRA, all-trans retinoic acid] turned out to be 3500
